Origin of measurements: the RepoRT retention time repository (doi:10.1021/acs.analchem.7b00925)

# Assay Name: HILIC, Merck SeQuant ZIC-HILIC, 100 × 2.1 mm, 3.5 µm, 25 °C, 0.3 mL/min, estimated dead time 0.73 min; A: water + 0.1% formic acid, pH 3; B: acetonitrile + 0.1% formic acid, pH 3; gradient (min/%B) 0/95 1.5/95 13.5/40 15.5/40 29.7/25 33.5/25 34.5/95 41.5/95
# Condition Description: stereoisomer not certain
The following molecules are shown together with reported LC retention time values.
Property Measured: LC retention time

Molecule | Val
O=C(O)Cc1cccnc1 | 5.94 min
O=C(O)CNC(=O)C1CCC(=O)N1 (stereo unspecified) | 4.32 min
Cc1ncc(CO)c(C=O)c1O | 4.94 min
CC(C(=O)[O-])[N+](C)(C)C (stereo unspecified) | 7.32 min
NC(COCc1ccccc1)C(=O)O (stereo unspecified) | 5.46 min
NCCCCN=C(N)N | 15.3 min
O=C(O)[C@H]1NCCC1O (stereo partly specified) [3-hydroxyproline] | 8.12 min
O=C(O)Cc1c[nH]c2ccccc12 | 1.26 min
CCCCC(N)C(=O)O (racemic) | 6.41 min
O=C(O)C1CC(O)CN1C(=O)C1CCCN1 (stereo unspecified) [Proline-hydroxyproline] | 8.4 min
OCCc1ccc(O)c(O)c1 [3,4-dihydroxyphenylethanol] | 2.27 min
